Listing of entries alongside the reported Ki.
- assay: Competitive inhibition of pig pancreatic cholesterol esterase assessed as p-nitrophenylbutyrate hydrolysis after 1 min by Lineweaver-Burke plot analysis
- Design: species or system Sus scrofa
Kindly answer with a numeric value in µM, unit omitted.

CCOP1(=O)OC(c2ccc(CC)cc2)=C(I)c2ccc(Cl)cc21 (stereo not drawn)
4.2
CCOP1(=O)OC(c2ccccc2)=C(C#Cc2ccccc2)c2ccccc21 (stereo not drawn)
1.9

Here is the next item to consider.
Problem: For the molecule `O=P1(O)OC(c2ccccc2)=C(Cl)c2ccccc21` , what Ki is on record?
Solution: 1.4

* * *

- assay: Inhibition of pig pancreatic cholesterol esterase assessed as p-nitrophenylbutyrate hydrolysis after 1 min
- Design: species or system Sus scrofa
parameter-measured: pIC50
// scale note: pIC50 = -log10(conc_M); give the bare number

Record excerpt, results attached:
CCCCC1=Cc2ccccc2P(=O)(O)O1
4.20
O=P1(O)OC(c2ccccc2)=C(Br)c2ccccc21
4.85
CCOP1(=O)OC(c2ccccc2)=Cc2ccc(Cl)cc21 (stereo not given)
4.24
CCOP1(=O)OC(c2ccccc2)=C(Br)c2ccccc21 (stereo not given)
4.72
CCOP1(=O)OC(c2ccccc2)=C(C#Cc2ccccc2)c2ccccc21 (stereo not given)
5.64
CCOP1(=O)OC(c2ccc(OC)cc2)=C(Br)c2ccc(Cl)cc21 (stereo not given)
4.32
CCOP1(=O)OC(c2ccccc2)=C(Br)c2ccc(Cl)cc21 (stereo not given)
4.29
CCOP1(=O)OC(c2ccccc2)=Cc2ccccc21 (stereo not given)
4.20
O=P1(O)OC(c2ccccc2)=C(Cl)c2ccc(Cl)cc21
4.84
O=P1(O)OC(c2ccccc2)=C(Cl)c2ccccc21
5.72

Here is the next item to consider.
Problem: For the compound CCOP1(=O)OC(c2ccccc2)=C(Cl)c2ccc(Cl)cc21 (stereo not given) , what pIC50 is on record?
Solution: 4.46

* * *

- assay: Inhibition of pig pancreatic cholesterol esterase assessed as p-nitrophenylbutyrate hydrolysis after 1 min
- Parameters: species or system Sus scrofa
parameter-measured: pIC50
// scale note: pIC50 = -log10(conc_M); give the bare number

Record excerpt, results attached:
CCOP1(=O)OC(c2ccc(OC)cc2)=C(I)c2ccc(Cl)cc21 (centres undefined)
4.58
CCOP1(=O)OC(c2ccc(CC)cc2)=C(CC(=O)c2ccccc2)c2ccc(Cl)cc21 (centres undefined)
5.29
CCOP1(=O)OC(CO)=Cc2ccc(OC)cc21 (centres undefined)
4.10
CCOP1(=O)OC(c2ccccc2)=C(I)c2ccc(OC)cc21 (centres undefined)
4.26
O=P1(O)OC(c2ccccc2)=Cc2ccccc21
4.02
CCOP1(=O)OC(c2ccc(CC)cc2)=Cc2ccc(Cl)cc21 (centres undefined)
4.39
CCc1ccc(C2=Cc3ccc(Cl)cc3P(=O)(O)O2)cc1
4.23
COc1ccc2c(c1)P(=O)(O)OC(c1ccccc1)=C2Br
4.24

Problem: For the compound CCOP1(=O)OC(c2ccccc2)=C(I)c2ccc(Cl)cc21 (centres undefined) , what pIC50 is on record?
Solution: 4.32

Problem: For the compound `COc1ccc2c(c1)P(=O)(O)OC(c1ccccc1)=C2` , what pIC50 is on record?
Solution: 3.99

Problem: For the compound CCCCC1=Cc2ccc(Cl)cc2P(=O)(OCC)O1 (centres undefined) , what pIC50 is on record?
Solution: 4.37

Problem: For the compound CCOP1(=O)OC(c2ccccc2)=C(Cl)c2ccc(OC)cc21 (centres undefined) , what pIC50 is on record?
Solution: 4.05

Problem: For the compound CCOP1(=O)OC(c2ccccc2)=C(Cl)c2ccccc21 (centres undefined) , what pIC50 is on record?
Solution: 4.90

Problem: For the compound CCOP1(=O)OC(c2ccc(CC)cc2)=C(C#Cc2ccccc2)c2ccc(Cl)cc21 (centres undefined) , what pIC50 is on record?
Solution: 5.07

Problem: For the compound CCOP1(=O)OC(c2ccccc2)=C(Br)c2ccc(OC)cc21 (centres undefined) , what pIC50 is on record?
Solution: 4.46
